target: α₁ receptors; assay: [3H]prazosin binding (α1 receptors), rat cerebral cortex membranes; details: rat cerebral cortex crude membranes, [3H]prazosin 0.35 nM, 25°C 30 min; read-out: Receptor Binding IC50 (nM) α1
IC50: recorded values
assay metric: IC50 (nM)

>>> measured_value("CSc1ccccc1OCCNCCCNC(=O)c1cccc2c(=O)c(C)c(-c3ccccc3)oc12 [Example 75, methanesulphonate]")
147
>>> measured_value("COc1ccccc1N1CCN(CCO/N=C/c2cccc3c(=O)c(C)c(-c4ccccc4)oc23)CC1")
53
>>> measured_value("COc1cccc(OC)c1OCCNCCOc1cccc2c(=O)c(C)c(-c3ccccc3)oc12.Cl [Example 44, hydrochloride]")
685
>>> measured_value("COc1ccccc1N1CCN(CCCC(O)c2cccc3c(=O)c(C)c(-c4ccccc4)oc23)CC1.Cl.O (centres unmarked) [Example 21, hydrochloride monohydrate]")
17
>>> measured_value("COc1ccc(-c2oc3c(C(=O)NCCCN4CCN(c5ccccc5OC)CC4)cccc3c(=O)c2C)cc1")
26
>>> measured_value("COc1ccccc1N1CCN(CCCNC(=S)c2cccc3c(=O)c(C)c(-c4ccccc4)oc23)CC1 [Example 83, methanesulphonate]")
30
>>> measured_value("COc1ccccc1OCCCNCCCNC(=O)c1cccc2c(=O)c(C)c(-c3ccccc3)oc12 [Example 74, methanesulphonate hemihydrate]")
178
>>> measured_value("CCOc1ccccc1OCCNCCOCc1cccc2c(=O)c(C)c(-c3ccccc3)oc12.Cl [Example 28, hydrochloride]")
120
>>> measured_value("COc1ccccc1N1CCN(CCCNS(=O)(=O)c2cccc3c(=O)c(C)c(-c4ccccc4)oc23)CC1.CS(=O)(=O)O [Example 61, methanesulphonate]")
36
>>> measured_value("COc1ccccc1N1CCN(CCNC(=O)/C=C/c2cccc3c(=O)c(C)c(-c4ccccc4)oc23)CC1")
145
>>> measured_value("COc1ccccc1N1CCN(CCCNC(=O)c2cc(N)cc3c(=O)c(C)c(-c4ccccc4)oc23)CC1")
39
>>> measured_value("COc1ccccc1N1CCN(CCOC(=O)c2cccc3c(=O)c(C)c(-c4ccccc4)oc23)CC1.Cl.Cl [Example 6, dihydrochloride]")
107
>>> measured_value("Cc1c(-c2ccccc2)oc2c(C(=O)NCCCN3CCC(C(=O)c4ccc(F)cc4)CC3)cccc2c1=O")
25

----------
assay: Acute toxicity in mice after intraperitoneal and oral administration; conditions: mouse, in vivo; female albino Swiss mice, oral, mortality recorded 7 days after administration; read-out: Acute Toxicity in Mice LD50 (mg/kg) p.o.
Please note: LD50 at 168 h exactly at 600 mg/kg is criterion not met. Only values below 600 mg/kg get criterion met.

>>> assigned_label("COc1ccccc1N1CCN(CCCC(O)c2cccc3c(=O)c(C)c(-c4ccccc4)oc23)CC1.Cl.O (stereo not drawn)")
"criterion met"
>>> assigned_label("COc1ccccc1N1CCN(CCCS(=O)(=O)c2cccc3c(=O)c(C)c(-c4ccccc4)oc23)CC1.Cl")
"criterion not met"
>>> assigned_label("COc1ccccc1N1CCN(CCCOC(=O)c2cccc3c(=O)c(C)c(-c4ccccc4)oc23)CC1.Cl.Cl")
"criterion not met"
>>> assigned_label("COc1ccccc1N1CCN(CCN(C)C(=O)c2cccc3c(=O)c(C)c(-c4ccccc4)oc23)CC1.Cl")
"criterion not met"
>>> assigned_label("COc1ccccc1OCCN(C)CCCNC(=O)c1cccc2c(=O)c(C)c(-c3ccccc3)oc12.Cl")
"criterion met"
>>> assigned_label("COc1ccccc1N1CCN(CCCCNC(=O)c2cccc3c(=O)c(C)c(-c4ccccc4)oc23)CC1.CS(=O)(=O)O")
"criterion met"
>>> assigned_label("CS(=O)(=O)O.Cc1c(-c2ccccc2)oc2c(C(=O)NCCCN3CCC(c4ccccc4)(c4ccccc4)CC3)cccc2c1=O")
"criterion not met"
>>> assigned_label("COc1ccccc1N1CCN(CCSCc2cccc3c(=O)c(C)c(-c4ccccc4)oc23)CC1.Cl")
"criterion not met"
>>> assigned_label("COc1ccccc1N1CCN(CCCCCOc2cccc3c(=O)c(C)c(-c4ccccc4)oc23)CC1.Cl")
"criterion not met"
>>> assigned_label("COc1ccccc1N1CCN(CCCC(=O)c2cccc3c(=O)c(C)c(-c4ccccc4)oc23)CC1.CS(=O)(=O)O")
"criterion not met"

----------
molecular target: α₁ receptors; assay: [3H]prazosin binding (α1 receptors), rat cerebral cortex membranes; settings: rat cerebral cortex crude membranes, [3H]prazosin 0.35 nM, 25°C 30 min; read-out: Receptor Binding IC50 (nM) α1
IC50: recorded values
assay metric: IC50 (nM)

>>> measured_value("COc1ccccc1N1CCN(CCCNC(=O)c2cccc3c(=O)c(C)c(C)oc23)CC1")
56
>>> measured_value("COc1ccccc1N1CCN(CCCCc2cccc3c(=O)c(C)c(-c4ccccc4)oc23)CC1.CS(=O)(=O)O [Example 53, methanesulphonate]")
7
>>> measured_value("COc1ccccc1N1CCN(CCCNc2cccc3c(=O)c(C)c(-c4ccccc4)oc23)CC1")
17
>>> measured_value("Cc1c(-c2ccccc2)oc2c(C(=O)OCCCN3CCN(c4ccccc4Cl)CC3)cccc2c1=O.Cl.Cl [Example 7, dihydrochloride]")
86

----------
target: 5HT1A receptors (Rattus norvegicus, UniProt P19327); construct: Rat hippocampi were homogenized; from tissue; host or cells: rat hippocampus membranes; assay: [3H]8-OH-DPAT binding (5HT1A receptors), rat hippocampus membranes; settings: rat hippocampus crude membranes, [3H]8-OH-DPAT 1.0 nM, 25°C 30 min; read-out: Receptor Binding IC50 (nM) 5-HT1a
Sequence (P19327 whole entry): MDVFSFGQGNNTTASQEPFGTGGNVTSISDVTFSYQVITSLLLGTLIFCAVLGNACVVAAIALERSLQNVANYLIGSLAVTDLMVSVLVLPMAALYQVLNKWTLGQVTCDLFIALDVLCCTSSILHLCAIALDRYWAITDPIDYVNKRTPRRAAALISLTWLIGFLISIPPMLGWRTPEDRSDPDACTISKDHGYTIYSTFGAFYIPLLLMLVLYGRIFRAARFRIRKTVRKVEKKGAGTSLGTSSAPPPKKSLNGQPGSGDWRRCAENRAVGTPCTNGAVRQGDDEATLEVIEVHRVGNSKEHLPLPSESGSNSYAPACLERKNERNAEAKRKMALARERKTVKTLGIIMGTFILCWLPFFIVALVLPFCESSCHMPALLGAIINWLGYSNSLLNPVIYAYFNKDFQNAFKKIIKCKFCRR
Please note: IC50 exactly at 70 nM is NO. Only values below 70 nM get YES.

>>> assigned_label("COc1ccccc1N1CCN(CCCNC(=O)c2cccc3c(=O)c(-c4ccccc4)coc23)CC1 [Example 64, dimethanesulphonate]")
"YES"
>>> assigned_label("Cc1c(-c2ccccc2)oc2c(C(=O)OCCCN3CCN(c4ccccc4Cl)CC3)cccc2c1=O.Cl.Cl [Example 7, dihydrochloride]")
"NO"
>>> assigned_label("COc1ccccc1N1CCN(CCNS(=O)(=O)c2cccc3c(=O)c(C)c(-c4ccccc4)oc23)CC1.Cl [Example 48, hydrochloride]")
"YES"
>>> assigned_label("COc1ccccc1N1CCN(CCCS(=O)(=O)c2cccc3c(=O)c(C)c(-c4ccccc4)oc23)CC1.Cl [Example 47, hydrochloride]")
"YES"
>>> assigned_label("COc1ccccc1N1CCN(CCN(C)C(=O)c2cccc3c(=O)c(C)c(-c4ccccc4)oc23)CC1.Cl [Example 16, monohydrochloride]")
"NO"
>>> assigned_label("CCOc1ccccc1N1CCN(CC(O)c2cccc3c(=O)c(C)c(-c4ccccc4)oc23)CC1.Cl (stereo not shown) [Example 19, hydrochloride]")
"NO"

----------
assay: Acute toxicity in mice after intraperitoneal and oral administration; settings: mouse, in vivo; female albino Swiss mice, oral, mortality recorded 7 days after administration; read-out: Acute Toxicity in Mice LD50 (mg/kg) p.o.
LD50 at 168 h: recorded values
assay metric: LD50 at 168 h (mg/kg)

>>> measured_value("COc1ccccc1N1CCN(CCC(=O)c2cccc3c(=O)c(C)c(-c4ccccc4)oc23)CC1.Cl [Example 4]")
1730
>>> measured_value("COc1cccc(OC)c1OCCNCCOc1cccc2c(=O)c(C)c(-c3ccccc3)oc12.Cl [Example 44]")
399
>>> measured_value("Cc1c(-c2ccccc2)oc2c(C(=O)OCCCN3CCN(c4ccccc4Cl)CC3)cccc2c1=O.Cl.Cl [Example 7]")
1920
>>> measured_value("COc1ccccc1N1CCN(CCCCc2cccc3c(=O)c(C)c(-c4ccccc4)oc23)CC1.CS(=O)(=O)O [Example 53]")
1020
>>> measured_value("COc1ccccc1N1CCN(CCO/N=C/c2cccc3c(=O)c(C)c(-c4ccccc4)oc23)CC1 [Example 70]")
1870
>>> measured_value("Cc1c(-c2ccccc2)oc2c(C(=O)OCCN3CCCCC3)cccc2c1=O [Flavoxate, reference compound]")
808
>>> measured_value("CS(=O)(=O)O.Cc1c(-c2ccccc2)oc2c(C(=O)NCCCN3CCN(c4ncccn4)CC3)cccc2c1=O [Example 58]")
508
>>> measured_value("Cc1c(-c2ccccc2)oc2c(C(=O)OCCCN3CCN(c4ccccc4)CC3)cccc2c1=O.Cl.Cl [Example 8]")
1920
>>> measured_value("COc1ccccc1N1CCN(CCC(=O)N(C)c2cccc3c(=O)c(C)c(-c4ccccc4)oc23)CC1.CS(=O)(=O)O [Example 63]")
479

----------
LD50 at 168 h: recorded values
experiment: Acute toxicity in mice after intraperitoneal and oral administration; conditions: mouse, in vivo, ip; female albino Swiss mice, intraperitoneal, mortality recorded 7 days after administration; read-out: Acute Toxicity in Mice LD50 (mg/kg) i.p.
Counter-ions that a name gives are not always drawn.
assay metric: LD50 at 168 h (mg/kg)

>>> measured_value("COc1ccccc1N1CCN(CCCNC(=O)c2cccc3c(=O)c(C)c(-c4ccccc4)oc23)CC1 [Example 11, dihydrochloride hemihydrate]")
247
>>> measured_value("COc1ccccc1N1CCN(CCCC(O)c2cccc3c(=O)c(C)c(-c4ccccc4)oc23)CC1.Cl.O (stereo not shown)")
297
>>> measured_value("COc1ccccc1N1CCN(CC(O)COc2cccc3c(=O)c(C)c(-c4ccccc4)oc23)CC1.Cl (stereo not shown)")
329
>>> measured_value("Cc1ccccc1N1CCN(CC(O)c2cccc3c(=O)c(C)c(-c4ccccc4)oc23)CC1.Cl (stereo not shown)")
457
